B1: TPR t1 (parent)
chain: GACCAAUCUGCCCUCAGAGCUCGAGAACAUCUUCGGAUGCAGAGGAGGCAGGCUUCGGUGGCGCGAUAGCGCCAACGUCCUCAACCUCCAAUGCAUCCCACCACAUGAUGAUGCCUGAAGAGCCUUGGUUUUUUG

Variants of: B1
testProtocol: polymerase ribozyme fitness, log enrichment relative to wild type (log ratio); higher = more active; in vitro selection for triplet polymerase activity
measuredEndpoint: polymerase ribozyme fitness (log ratio)
Please state the value as a number alone, without comment.

A selection of reference data follows.
[[record]]
mutations = "G48U G110U"
number = -2.84

[[record]]
mutations = "C15G C101A"
number = -3.78


Q: Please look up its polymerase ribozyme fitness (log ratio): A74U C114G C124A U125C
A: -1.43
